Data origin: paper PMC12028158

- Test system: HS 578T
- method.summary: NCI60 one-dose screen
- Type: cell-based
- conditions: Homo sapiens; HS 578T, 10 μM, one-dose; read-out: Growth percent
assay.readout: activity at 10 µM (%)
All answers are understood in %, so give the number only.

Worked examples follow.
compound: CCC12C=CCN3CCC4(c5ccc(OC)cc5N(C)C4C(O)(C(=O)OC)C1OC(=O)c1ccc(C[P+](c4ccccc4)(c4ccccc4)c4ccccc4)cc1)C32 (stereo not drawn) [compound 12]
system.tested: HS 578T
value.measured: -36.6
--
compound: CC[C@]12C=CCN3CC[C@@]4(c5ccc(OC)cc5N(C)[C@H]4[C@@](O)(C(=O)OC)[C@@H]1OC(=O)CCC[P+](c1ccccc1)(c1ccccc1)c1ccccc1)[C@@H]32 [compound 3, reference compound]
system.tested: HS 578T
value.measured: 25.5

Now for the compound whose activity at 10 µM we want.
activity at 10 µM in this record for CC[C@]12C=CCN3CC[C@@]4(c5ccc(OC)cc5N(C)[C@H]4[C@@](O)(C(=O)OC)[C@@H]1OC(=O)CCCC[P+](c1ccc(F)cc1)(c1ccc(F)cc1)c1ccc(F)cc1)[C@@H]32 [10c] : -2.23
